- testSystem: hSTING-R232 (Homo sapiens (Human), UniProt Q86WV6, H232R)
- Sequence (Q86WV6 140-379 H232R): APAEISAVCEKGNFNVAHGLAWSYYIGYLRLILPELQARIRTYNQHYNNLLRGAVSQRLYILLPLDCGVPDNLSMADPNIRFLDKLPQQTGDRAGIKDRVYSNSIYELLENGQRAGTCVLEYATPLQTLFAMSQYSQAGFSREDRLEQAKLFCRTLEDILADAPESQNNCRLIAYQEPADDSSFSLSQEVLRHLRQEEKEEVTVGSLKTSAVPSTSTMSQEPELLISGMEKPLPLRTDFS
- test: STING differential scanning fluorimetry (DSF) assay, WT human STING
- conditionInfo: WT (R232) human STING aa140-379, net shift in melting temperature
readoutLabel: WT_DSF_hSWAT Tm Shift (° C.)

>>> print(df.to_string())
                                   compound                                testsystem     observedresult
0  O=C(O)Cn1c2cc(-c3ccncc3)ccc2c(=O)c2ccc(Cl)c(Cl)c21 [Compound 189]  hSTING-R232 (Homo sapiens (Human), UniProt Q86WV6, H232R)  C (“C” = 2-7° C,)
1  CC(C)Oc1c(Cl)ccc2c(=O)c3ccccc3n(CC(=O)O)c12 [Compound 246]  hSTING-R232 (Homo sapiens (Human), UniProt Q86WV6, H232R)  C (“C” = 2-7° C,)
2  CCOc1c(Cl)ccc2c(=O)c3ccccc3n(CC(=O)O)c12 [Compound 244]  hSTING-R232 (Homo sapiens (Human), UniProt Q86WV6, H232R)    D (“D” > 7° C.)
3  C[C@@H](Oc1c(Cl)ccc2c(=O)c3ccccc3n(CC(=O)O)c12)c1ccccc1 [Compound 296]  hSTING-R232 (Homo sapiens (Human), UniProt Q86WV6, H232R)    A (“A” < 0° C.)
4  Cc1ccc2c(=O)c3ccc(Cl)c(N(C)C)c3n(CC(=O)O)c2c1 [Compound 308]  hSTING-R232 (Homo sapiens (Human), UniProt Q86WV6, H232R)    D (“D” > 7° C.)
5  CCCOc1c(Cl)ccc2c(=O)c3ccccc3n(CC(=O)O)c12 [Compound 284]  hSTING-R232 (Homo sapiens (Human), UniProt Q86WV6, H232R)  C (“C” = 2-7° C,)

I would be grateful if you could share the reported WT_DSF_hSWAT Tm Shift (° C.) for COc1c(Cl)ccc2c(=O)c3ccc(NC4CCC4)cc3n(CC(=O)O)c12 [Compound 292] .
D (“D” > 7° C.)

I would be grateful if you could share the reported WT_DSF_hSWAT Tm Shift (° C.) for COc1c(Cl)ccc2c(=O)c3ccc(C)cc3n(CC(=O)O)c12 [Compound 280] .
D (“D” > 7° C.)

I would be grateful if you could share the reported WT_DSF_hSWAT Tm Shift (° C.) for COc1c(Cl)ccc2c(=O)c3ccc(Nc4ccc(O)cc4)cc3n(CC(=O)O)c12 [Compound 236] .
D (“D” > 7° C.)

I would be grateful if you could share the reported WT_DSF_hSWAT Tm Shift (° C.) for C#CCOc1c(Cl)ccc2c(=O)c3ccccc3n(CC(=O)O)c12 [Compound 272] .
B (“B” = 0-2° C.)

I would be grateful if you could share the reported WT_DSF_hSWAT Tm Shift (° C.) for CC(C)c1ccc2c(=O)c3ccc(Cl)c(C(F)(F)F)c3n(CC(=O)O)c2c1 [Compound 192] .
A (“A” < 0° C.)
